- experimentalTarget: T1, recombinant human IL1RAP ECD (human, UniProt Q9NPH3 21-367)
- T1 construct: His-tagged; also called hIL1RAP-ECD; rhuIL1RAP
- T1 sequence: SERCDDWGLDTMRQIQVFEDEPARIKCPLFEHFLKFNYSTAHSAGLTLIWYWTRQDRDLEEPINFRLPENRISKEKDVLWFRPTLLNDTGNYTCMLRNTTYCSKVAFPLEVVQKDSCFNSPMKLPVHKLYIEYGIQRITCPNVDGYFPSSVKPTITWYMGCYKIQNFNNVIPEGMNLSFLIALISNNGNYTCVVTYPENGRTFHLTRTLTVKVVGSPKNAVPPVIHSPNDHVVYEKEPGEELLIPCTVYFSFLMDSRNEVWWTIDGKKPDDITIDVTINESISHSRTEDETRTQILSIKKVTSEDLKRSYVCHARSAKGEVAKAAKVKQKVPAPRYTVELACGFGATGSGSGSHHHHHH
- assayDetails: SPR (ProteOn)
Record form. Attribute: Kd. Fill in for each entry.
Please state the figure in nM; there is no need to write the unit.

Exercise: Which Kd is reported for this binder? IAPB55, 22A09 (hybridoma mAb, unpurified) (antibody, V domains shown, OmniRat hybridoma product (rat constant region)) VH: QLQLQESGPGLVKPSETLSLTCTVSGVSISSSTYYWGWLRQPPGMGLEWTGSIYFTGNTYYNPSLKSRVTISVDTSRNQFSLKLSSVTAADTAVYYCGSLFGDYGYFDYWGQGTLVTVSS VL: EIVMTQSPATLSVSPGERATLSCRASQFISSNLAWYQQKPGQAPRLLIYGASTRATGIPARFSGSGSGTDFTLTISSLQSEDFAVYYCQQYNNWPFTFGPGTKVDIK
Solution: 1.64

Exercise: Which Kd is reported for this binder? IAPB47 (antibody, human IgG4 S228P, kappa, F234A L235A, V domains shown, IgG4-PAA; whole chains) VH: EVQLVQSGAEVKKPGESLKISCKGSGYSFTSYWIGWVRQMPGKGLEWMGIIYPSDSYTRYSPSFQGQVTISADKSISTAYLQWSSLKASDTAMYYCARRNSAENYADLDYWGQGTLVTVSS VL: EIVLTQSPGTLSLSPGERATLSCRASQSISNDLNWYQQKPGKAPKLLIYYASSLQSGVPSRFSGSGSGTDFTLTINSLQPEDFATYYCQQSFTAPLTFGQGTKVEIKR
Solution: 1.24

Exercise: Which Kd is reported for this binder? IAPB04 (antibody, human IgG4 S228P, kappa, F234A L235A, V domains shown, IgG4-PAA; also called IAPB4; phage hit B4) VH: QVQLVQSGAEVKKPGSSVKVSCKASGGTFSSYAISWVRQAPGQGLEWMGGISAIFGTANYAQKFQGRVTITADESTSTAYMELSSLRSEDTAVYYCARHLHNGIHLDYWGQGTLVTVSS VL: EIVLTQSPATLSLSPGERATLSCRASQSVSNFLAWYQQKPGQAPRLLIYGASNRATGIPARFSGSGSGTDFTLTISSLEPEDFAVYYCQQGKHWPWTFGQGTKVEIKR
Solution: 5.66

Exercise: Which Kd is reported for this binder? IAPB61, 25D12 (hybridoma mAb, unpurified) (antibody, V domains shown, OmniRat hybridoma product (rat constant region)) VH: QLQLQESGPGLVKPSETLSLTCTVSGVSISSSTYYWGWLRQPPGMGLEWTGSIYFTGNTYYNPSLKSRVTISVDTSRNQFSLKLSSVTAADTAVYYCGSLFGDYGYFDYWGQGTLVTVSS VL: EIVMTQSPATLSVPPGERATLSCRASQFISSNLAWYQQKPGQAPRLLIYGASTRATGIPARFSGSGSGTDFTLTISSLQSEDFAVYYCQQYNNWPSTFGPGTKVDIK
Solution: 17.5

Exercise: Which Kd is reported for this binder? IAPB57, 5G08 (hybridoma mAb, unpurified) (antibody, V domains shown, OmniRat hybridoma product (rat constant region)) VH: QLQLQESGPGLVKPSETLSLTCTVSGGSISSSTYYWGWIRQPPGKGLEWIGSIYFTGSTDYNPSLKSRVSISVDTSKNQFSLKLSSVTAADTAVYYCAKEDDSSGYYSFDYWGQGNLVTVSS VL: DIQLTQSPSFLSASVGDRVTITCRASQGISSYLAWYQQKPGKAPKLLIYAASTLQSGVPSRFSGSGSGTEFTLTISSLQPEDFATYYCQQVNSYPLTFGGGTKVEIK
Solution: 0.16

Exercise: Which Kd is reported for this binder? IAPB23 (antibody, human IgG4 S228P, kappa, F234A L235A, V domains shown, IgG4-PAA; whole chains) VH: EVQLLESGGGLVQPGGSLRLSCAASGFTFSNYWMNWVRQAPGKGLEWVSAIRYDGGSKYYADSVKGRFTISRDNSKNTLYLQMNSLRAEDTAVYYCAKDAYPPYSFDYWGQGTLVTVSS VL: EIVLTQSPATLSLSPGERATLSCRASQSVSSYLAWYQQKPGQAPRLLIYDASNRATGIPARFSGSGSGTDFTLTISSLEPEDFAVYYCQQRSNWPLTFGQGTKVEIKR
Solution: 4.7

Reference for the values: patent US20190270826A1
